Kindly supply the reported pKd values for the records listed here.
assayed-system: T1, His-tagged human HtrA1 protease domain (human, UniProt Q92743 161-367)
T1 construct: His-tagged protease domain; also called huHtrA1-PD-His; huHtrA1-PD
T1 sequence (Q92743 other isoform, or with tags, fused parts or gaps limits assumed): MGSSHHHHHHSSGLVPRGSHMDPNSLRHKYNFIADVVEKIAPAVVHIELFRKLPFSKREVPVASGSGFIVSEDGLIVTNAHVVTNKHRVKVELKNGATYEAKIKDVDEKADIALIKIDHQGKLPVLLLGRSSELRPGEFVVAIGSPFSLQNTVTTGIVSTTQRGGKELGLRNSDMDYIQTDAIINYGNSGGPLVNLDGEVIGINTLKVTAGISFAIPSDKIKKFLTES
protocol-description: BIACORE SPR, single-cycle kinetics; Fab analyte over captured human HtrA1
Answers are plain numbers, as −log10 of the molar value.

Field: example entries. Status: answers known.
binder | pKd
h15H6.v2 LC-N94S LC-P95 Fab (Fab, V domains shown, Produced as Fab; also called SP) VH: EVQLVQSGAEVKKPGASVKVSCKASGYTFTDSEMHWVRQAPGQGLEWIGGVDPETDGAAYNQKFKGRATITRDTSTSTAYLELSSLRSEDTAVYYCTRGYDYDYALDYWGQGTLVTVSS VL: DIQMTQSPSSLSASVGDRVTITCRASSSVNFIHWYQQKPGKAPKPLISATSNLASGVPSRFSGSGSGTDFTLTISSLQPEDFATYYCQQWSSSPWTFGQGTKVEIK | 9.28
h15H6.v2 Fab (Fab, V domains shown, Tested as Fab; also called parent; parental Fab) VH: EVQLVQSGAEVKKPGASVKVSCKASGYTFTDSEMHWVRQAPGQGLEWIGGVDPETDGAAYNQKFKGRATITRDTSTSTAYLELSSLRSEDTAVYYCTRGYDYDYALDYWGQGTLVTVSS VL: DIQMTQSPSSLSASVGDRVTITCRASSSVNFIHWYQQKPGKAPKPLISATSNLASGVPSRFSGSGSGTDFTLTISSLQPEDFATYYCQQWSSNPWTFGQGTKVEIK | 9.60
h15H6.v2 LC-N94Q LC-P95 Fab (Fab, V domains shown, Produced as Fab; also called QP) VH: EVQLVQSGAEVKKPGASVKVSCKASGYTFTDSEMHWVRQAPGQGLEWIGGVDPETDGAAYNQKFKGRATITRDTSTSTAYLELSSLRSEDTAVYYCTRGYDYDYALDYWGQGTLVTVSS VL: DIQMTQSPSSLSASVGDRVTITCRASSSVNFIHWYQQKPGKAPKPLISATSNLASGVPSRFSGSGSGTDFTLTISSLQPEDFATYYCQQWSSQPWTFGQGTKVEIK | 9.28
h15H6.v2 LC-N94E LC-P95 Fab (Fab, V domains shown, Produced as Fab; also called EP) VH: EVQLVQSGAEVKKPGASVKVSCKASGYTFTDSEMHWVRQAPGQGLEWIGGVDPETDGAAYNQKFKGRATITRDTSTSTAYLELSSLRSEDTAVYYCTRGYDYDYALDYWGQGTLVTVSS VL: DIQMTQSPSSLSASVGDRVTITCRASSSVNFIHWYQQKPGKAPKPLISATSNLASGVPSRFSGSGSGTDFTLTISSLQPEDFATYYCQQWSSEPWTFGQGTKVEIK | 9.48

Now for another entry.
*Q* May I ask what pKd has been recorded for h15H6.v2 LC-N94A LC-P95 Fab (Fab, V domains shown, Produced as Fab; also called AP) VH: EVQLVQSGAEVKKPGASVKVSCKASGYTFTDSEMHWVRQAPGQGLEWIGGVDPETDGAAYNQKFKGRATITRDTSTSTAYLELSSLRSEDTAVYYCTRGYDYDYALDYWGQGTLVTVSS VL: DIQMTQSPSSLSASVGDRVTITCRASSSVNFIHWYQQKPGKAPKPLISATSNLASGVPSRFSGSGSGTDFTLTISSLQPEDFATYYCQQWSSAPWTFGQGTKVEIK ?
*A* 9.51

Origin of measurements: patent US20170145113A1
